experimentalSystem: Delta-type opioid receptor (Rattus norvegicus, UniProt P33533)
Sequence (P33533 whole entry): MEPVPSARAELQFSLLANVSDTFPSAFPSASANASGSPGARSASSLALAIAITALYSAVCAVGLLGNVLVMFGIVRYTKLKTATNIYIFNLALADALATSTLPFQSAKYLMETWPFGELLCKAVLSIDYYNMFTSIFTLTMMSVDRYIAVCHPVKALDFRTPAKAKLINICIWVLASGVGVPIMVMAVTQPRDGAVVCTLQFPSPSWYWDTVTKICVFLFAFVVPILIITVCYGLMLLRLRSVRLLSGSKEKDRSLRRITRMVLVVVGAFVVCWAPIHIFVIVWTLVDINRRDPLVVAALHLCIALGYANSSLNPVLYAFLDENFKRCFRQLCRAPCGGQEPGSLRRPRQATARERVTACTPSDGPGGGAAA
assayComment: Displacement of [3H]DPDPE from delta opioid receptor in rat membranes after 120 mins by scintillation counting analysis
quantityMeasured: pKi
Answers are plain numbers, as −log10 of the molar value.

For each listed entry, give its pKi.
1. CN(CC1CCCCC1)[C@H]1CC[C@@]2(CC1)OCCc1ccccc12
2. COC1Cc2ccccc2[C@]2(CC[C@@H](NCC3CCCCC3)CC2)O1 (stereo not given in full)
3. COC1Cc2ccccc2[C@]2(CC[C@@H](N(C)CC3CCCCC3)CC2)O1 (stereo not given in full)
4. CCOC1Cc2ccccc2[C@]2(CC[C@@H](NCC3CCCCC3)CC2)O1 (stereo not given in full)
5. COC1O[C@]2(CC[C@H](N(C)CC3CCCCC3)CC2)c2ccccc21 (stereo not given in full)
6. COC1O[C@]2(CC[C@@H](NCc3ccccc3)CC2)c2ccccc21 (stereo not given in full)

1. 6.73
2. 6.64
3. 6.82
4. 6.73
5. 6.60
6. 6.18

Take each entry in turn and give its pKi.
1. COC1Cc2ccccc2[C@]2(CC[C@@H](NCc3ccccc3)CC2)O1 (stereo not given in full)
2. C1=Cc2ccccc2[C@]2(CC[C@@H](NCC3CCCCC3)CC2)O1
3. COC1O[C@]2(CC[C@H](NCC3CCCCC3)CC2)c2ccccc21 (stereo not given in full)
4. COC1O[C@]2(CC[C@@H](NCC3CCCCC3)CC2)c2ccccc21 (stereo not given in full)

[7.31, 6.32, 6.94, 6.84]

----------
Please provide measured log10 of Ki for the entries that follow.
experimentalSystem: Sigma non-opioid intracellular receptor 1 (Cavia porcellus)
Sequence (Q60492 whole entry): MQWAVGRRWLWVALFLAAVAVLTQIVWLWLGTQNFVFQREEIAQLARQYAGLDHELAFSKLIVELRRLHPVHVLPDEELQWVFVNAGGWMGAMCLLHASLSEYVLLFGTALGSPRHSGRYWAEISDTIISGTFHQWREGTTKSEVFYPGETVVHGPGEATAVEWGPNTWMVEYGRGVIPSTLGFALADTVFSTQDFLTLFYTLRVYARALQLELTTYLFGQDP
assayComment: Displacement of [3H](+)-pentazocine from sigma 1 receptor in guinea pig brain cortex membranes after 120 mins by scintillation counting analysis
All values: base-10 log of Ki in nM.

Some compounds with known log10 of Ki results, for comparison:
CCOC1Cc2ccccc2[C@]2(CC[C@@H](NCC3CCCCC3)CC2)O1 (stereo partly drawn) | 2.26
c1ccc(CN[C@H]2CC[C@]3(CC2)OCCc2ccccc23)cc1 | 1.99
COC1Cc2ccccc2[C@]2(CC[C@H](N(C)CC3CCCCC3)CC2)O1 (stereo partly drawn) | 0.28
COC1O[C@]2(CC[C@@H](NCc3ccccc3)CC2)c2ccccc21 (stereo partly drawn) | 1.70

Would you be so kind as to report log10 of Ki for each listed record?
1. COC1O[C@]2(CC[C@@H](N(C)CC3CCCCC3)CC2)c2ccccc21 (stereo partly drawn)
2. COC1Cc2ccccc2[C@]2(CC[C@@H](NCC3CCCCC3)CC2)O1 (stereo partly drawn)
3. C1=Cc2ccccc2[C@]2(CC[C@@H](NCC3CCCCC3)CC2)O1
4. COC1O[C@]2(CC[C@H](NCC3CCCCC3)CC2)c2ccccc21 (stereo partly drawn)
5. COC1Cc2ccccc2[C@]2(CC[C@H](NCC3CCCCC3)CC2)O1 (stereo partly drawn)
6. CCOC1Cc2ccccc2[C@]2(CC[C@H](NCC3CCCCC3)CC2)O1 (stereo partly drawn)

1: 0.91; 2: 1.28; 3: 1.08; 4: 1.28; 5: 0.76; 6: 1.56

Report log10 of Ki for every entry below.
1. COC1O[C@]2(CC[C@@H](NCC3CCCCC3)CC2)c2ccccc21 (stereo partly drawn)
2. CN(CC1CCCCC1)[C@H]1CC[C@]2(CC1)OC=Cc1ccccc12
3. CCOC1Cc2ccccc2[C@]2(CC[C@@H](N(C)CC3CCCCC3)CC2)O1 (stereo partly drawn)

1.30
0.36
1.18

----------
Can you tell me Ratio Ki for the items I'm about to list?
assayComment: Selectivity ratio of Ki for displacement of [3H]DTG from sigma2 receptor in rat liver membranes to Ki for displacement of (+)-[3H]pentazocine from sigma 1 receptor in guinea pig brain cortex membranes
Format: cell membranes

# per-item lookup of Ratio Ki; items listed below
1. CN(CC1CCCCC1)[C@H]1CC[C@@]2(CC1)OCCc1ccccc12
2. COC1O[C@]2(CC[C@@H](NCC3CCCCC3)CC2)c2ccccc21 (some centres not stated)
3. c1ccc2c(c1)CCO[C@]21CC[C@H](NCC2CCCCC2)CC1
4. CN(CC1CCCCC1)[C@H]1CC[C@]2(CC1)OCCc1ccccc12

1. 22
2. 5 to 10
3. 5 to 10
4. 5 to 10

Lab note: each molecule below needs its Ratio Ki filled in.
1. C1=Cc2ccccc2[C@]2(CC[C@@H](NCC3CCCCC3)CC2)O1
2. COC1Cc2ccccc2[C@]2(CC[C@@H](NCC3CCCCC3)CC2)O1 (some centres not stated)
3. COC1O[C@]2(CC[C@H](NCc3ccccc3)CC2)c2ccccc21 (some centres not stated)
4. COC1Cc2ccccc2[C@]2(CC[C@@H](N(C)CC3CCCCC3)CC2)O1 (some centres not stated)
5. COC1O[C@]2(CC[C@@H](N(C)CC3CCCCC3)CC2)c2ccccc21 (some centres not stated)
6. COC1O[C@]2(CC[C@H](N(C)CC3CCCCC3)CC2)c2ccccc21 (some centres not stated)

1. 5 to 10
2. 5 to 10
3. 5 to 10
4. 50
5. 5 to 10
6. 21

Fill in Ratio Ki for each of the 8 molecules listed.
1. COC1O[C@]2(CC[C@@H](NCc3ccccc3)CC2)c2ccccc21 (some centres not stated)
2. CCOC1Cc2ccccc2[C@]2(CC[C@H](N(C)CC3CCCCC3)CC2)O1 (some centres not stated)
3. c1ccc(CN[C@H]2CC[C@]3(CC2)OCCc2ccccc23)cc1
4. COC1O[C@]2(CC[C@H](NCC3CCCCC3)CC2)c2ccccc21 (some centres not stated)
5. COC1Cc2ccccc2[C@]2(CC[C@H](N(C)CC3CCCCC3)CC2)O1 (some centres not stated)
6. CCOC1Cc2ccccc2[C@]2(CC[C@@H](N(C)CC3CCCCC3)CC2)O1 (some centres not stated)
7. CCOC1Cc2ccccc2[C@]2(CC[C@H](NCC3CCCCC3)CC2)O1 (some centres not stated)
8. CN(CC1CCCCC1)[C@H]1CC[C@]2(CC1)OC=Cc1ccccc12

1. 5 to 10
2. 5 to 10
3. 5 to 10
4. 5 to 10
5. 5 to 10
6. 24
7. 5 to 10
8. 5 to 10

Batch request: Ratio Ki for each of the following molecules.
1. COC1Cc2ccccc2[C@]2(CC[C@H](NCC3CCCCC3)CC2)O1 (some centres not stated)
2. COC1Cc2ccccc2[C@]2(CC[C@H](N(C)Cc3ccccc3)CC2)O1 (some centres not stated)
3. COC1Cc2ccccc2[C@]2(CC[C@@H](NCc3ccccc3)CC2)O1 (some centres not stated)
4. c1ccc2c(c1)CCO[C@]21CC[C@@H](NCC2CCCCC2)CC1

1. 5 to 10
2. 5 to 10
3. 5 to 10
4. 5 to 10

----------
Values of pKi reported for Kappa-type opioid receptor (Cavia porcellus) appear below.
One number for each entry, as −log10 of the molar value.

These recorded examples may help you get a feel for the data.
COC1Cc2ccccc2[C@]2(CC[C@@H](NCC3CCCCC3)CC2)O1 (stereo partly drawn) | 7.02
COC1Cc2ccccc2[C@]2(CC[C@@H](N(C)CC3CCCCC3)CC2)O1 (stereo partly drawn) | 6.01
COC1O[C@]2(CC[C@@H](NCc3ccccc3)CC2)c2ccccc21 (stereo partly drawn) | 5.94
c1ccc2c(c1)CCO[C@]21CC[C@H](NCC2CCCCC2)CC1 | 6.63
C1=Cc2ccccc2[C@]2(CC[C@@H](NCC3CCCCC3)CC2)O1 | 6.22
CCOC1Cc2ccccc2[C@]2(CC[C@@H](NCC3CCCCC3)CC2)O1 (stereo partly drawn) | 7.07
c1ccc(CN[C@H]2CC[C@@]3(CC2)OCCc2ccccc23)cc1 | 7.07

Look at this compound and give its reported pKi. COC1Cc2ccccc2[C@]2(CC[C@@H](NCc3ccccc3)CC2)O1 (stereo partly drawn)
6.69
